test: chemical genetic growth profiling, strain panel (AID 1159580);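 also: tested at 20 µM; growth read once vehicle control cultures reached saturation at 30 °C; 1 = growth at the plate median or of vehicle wells; lower values mean less growth of the strain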; conditions: S. cerevisiae deletion strains, growth OD, locus YFR003C, strain YPI1, stronger effect = lower value
Out of some 5,500 compounds screened, about 2,000 (36%) were called active. Another 18% or so got no clear call; they are omitted. The list shows a part of the results.
# maps each entry to its normalized growth

- compound: "Cc1cc2nc3c(Cl)c(O)c4ccccc4c3nc2cc1C"
  propertyName: "normalized growth"
  measValue: "0.962 (inactive)"
- compound: "N#CC(C(=O)Nc1cccc(C(F)(F)F)c1)C(=S)Nc1ccccc1Cl (stereo unspecified)"
  propertyName: "normalized growth"
  measValue: "0.997 (inactive)"
- compound: "O=C(Nc1ccc(F)cc1F)c1cc(Cl)ccc1O"
  propertyName: "normalized growth"
  measValue: "0.929 (inactive)"
- compound: "Cc1cc(Sc2c([N+](=O)[O-])cc(C(F)(F)F)cc2[N+](=O)[O-])c(Cl)cc1Cl"
  propertyName: "normalized growth"
  measValue: "0.997 (inactive)"
- compound: "O=C(OCCNc1ccc([N+](=O)[O-])cn1)c1ccc([N+](=O)[O-])o1"
  propertyName: "normalized growth"
  measValue: "0.924 (inactive)"

# context switch: different compound, same normalized growth
**Query** Return reported normalized growth; argument: `CC(C)Sc1c(Cl)cccc1NC(=O)Nc1ccccc1`
**Result** 0.957 (inactive)
